Listed here: items and their measured TGI.
Tested on: LOX IMVI melanoma
Assay: NCI tumour cell line growth inhibition, 48 h

Reference set (5 entries):
CC1(C)CC[C@]2(C(=O)O)CC[C@]3(C)C(=CC[C@@H]4[C@@]5(C)CC[C@@H]6OC(C)(C)OC[C@@]6(C)[C@@H]5CC[C@]43C)[C@H]2C1 ... 20.7 µM
COc1ccc(C2SC(C)C(=O)N2NC(=O)C(O)c2ccccc2)cc1 (centres undefined) ... > 100 µM
Cn1c(-c2ccccc2)c/c(=N\NS(C)(=O)=O)c2cc(S(=O)(=O)O)ccc21 ... > 100 µM
CC(=O)OCC(OC(C)=O)C(OC(C)=O)C(OC(C)=O)C(/C=N\Nc1nc2ccccc2c(=O)[nH]1)OC(C)=O (centres undefined) ... > 100 µM
COC(=O)c1cc(/C=C2\Cc3cc4c(cc3C2=O)CCC4)cc2c1CCC2 ... > 100 µM

Please report the recorded TGI for CC(C)C(/C=C/c1ccc(Cl)cc1)=N\NC(=S)NN .
33.7 µM

Repeat for the following compound: COc1ccc2nc(-c3ccc(O)cc3)cn2c1
> 100 µM

Repeat for the following compound: Clc1cccc(Cc2cn3cc(-c4ccccc4)nc3s2)c1
> 100 µM

Repeat for the following compound: C[C@H]1[C@H](C)CC[C@]2(C(=O)O)CC[C@]3(C)C(=CC[C@@H]4[C@@]5(C)CC[C@H](OC(=O)/C=C\c6ccc(O)cc6)C(C)(C)[C@@H]5CC[C@]43C)[C@H]12
15.9 µM

The reported measurements were obtained from PubChem BioAssay (NCI).
